tested_target: Sodium-dependent noradrenaline transporter (Homo sapiens)
Sequence (P23975 whole entry): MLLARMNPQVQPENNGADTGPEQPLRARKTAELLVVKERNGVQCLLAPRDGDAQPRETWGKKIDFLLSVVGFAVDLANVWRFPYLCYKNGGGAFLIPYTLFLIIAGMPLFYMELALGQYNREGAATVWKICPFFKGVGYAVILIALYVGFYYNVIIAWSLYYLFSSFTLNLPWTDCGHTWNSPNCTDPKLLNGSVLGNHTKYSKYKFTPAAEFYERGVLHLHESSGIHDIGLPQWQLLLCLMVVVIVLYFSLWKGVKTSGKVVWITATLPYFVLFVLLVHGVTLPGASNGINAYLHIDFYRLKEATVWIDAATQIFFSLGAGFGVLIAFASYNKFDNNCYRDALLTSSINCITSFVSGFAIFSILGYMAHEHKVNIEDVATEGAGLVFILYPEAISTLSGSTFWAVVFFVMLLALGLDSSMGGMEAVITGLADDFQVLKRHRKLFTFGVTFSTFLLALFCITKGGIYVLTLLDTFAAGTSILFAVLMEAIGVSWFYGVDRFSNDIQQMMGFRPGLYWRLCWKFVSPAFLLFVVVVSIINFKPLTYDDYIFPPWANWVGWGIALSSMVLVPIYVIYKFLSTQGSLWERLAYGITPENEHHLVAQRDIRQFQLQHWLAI
Could you please report measured IC50 for the items listed next?
The reply should read as a number followed by its unit.

compound_structure_string: N#Cc1ccc(CCOC(=O)NC2CCN(CCCC(c3ccc(F)cc3)c3ccc(F)cc3)CC2)cc1
val: 1140 nM

As a next step, examine the molecule that follows.
The molecule identified as O=C(OCc1cc2c(cc1Cl)OCO2)N1CCC(n2c(O)nc3ccccc32)CC1 registered its IC50 at 3020 nM

* * *

tested_target: Adenosine receptor A1 (Homo sapiens)
Sequence (P30542 whole entry): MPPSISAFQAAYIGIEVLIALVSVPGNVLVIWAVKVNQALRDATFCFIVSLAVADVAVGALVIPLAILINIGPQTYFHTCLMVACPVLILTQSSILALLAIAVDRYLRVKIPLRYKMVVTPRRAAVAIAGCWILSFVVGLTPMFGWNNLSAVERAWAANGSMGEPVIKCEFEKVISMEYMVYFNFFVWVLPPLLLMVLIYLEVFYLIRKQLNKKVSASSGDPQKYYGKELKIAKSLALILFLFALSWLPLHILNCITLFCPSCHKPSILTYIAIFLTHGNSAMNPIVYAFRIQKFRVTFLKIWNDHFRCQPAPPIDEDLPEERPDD
Answer each item with its documented IC50.
Give bare numbers, in nM.

I'm hoping you can list IC50 for every compound here, please.
1. O=C(NCCCn1c(=O)[nH]c2ccccc21)OCc1cc2c(cc1Cl)OCO2
2. O=C(OCc1cc2c(cc1Cl)OCO2)N1CCC(n2c(O)nc3ccccc32)CC1

Response:
344
2640

* * *

tested_target: Histamine H2 receptor (Homo sapiens, UniProt P25021)
Sequence (P25021 whole entry): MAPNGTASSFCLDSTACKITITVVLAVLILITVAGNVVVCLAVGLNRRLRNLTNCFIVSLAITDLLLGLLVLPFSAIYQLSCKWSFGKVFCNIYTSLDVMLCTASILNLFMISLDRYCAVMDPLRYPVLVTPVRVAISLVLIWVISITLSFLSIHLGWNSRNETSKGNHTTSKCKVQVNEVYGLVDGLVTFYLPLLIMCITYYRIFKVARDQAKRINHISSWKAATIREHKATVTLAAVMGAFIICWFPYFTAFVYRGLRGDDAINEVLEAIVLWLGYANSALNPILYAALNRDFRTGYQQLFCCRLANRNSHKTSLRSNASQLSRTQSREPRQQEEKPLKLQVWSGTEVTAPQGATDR
recorded_metric: IC50 (nM)
Numbers only, in nM.

compound_structure_string: CCOc1ccc(CCNC(=O)N2CCN(CCCC(c3ccc(F)cc3)c3ccc(F)cc3)CC2)cc1
tested_target: Histamine H2 receptor (Homo sapiens, UniProt P25021)
IC50, nM: 757
--
compound_structure_string: N#Cc1ccc(CCOC(=O)N2CCN(CCCC(c3ccc(F)cc3)c3ccc(F)cc3)CC2)cc1
tested_target: Histamine H2 receptor (Homo sapiens, UniProt P25021)
IC50, nM: 1030
--
compound_structure_string: O=C(CCc1ccc(F)cc1)N1CCN(CCCC(c2ccc(F)cc2)c2ccc(F)cc2)CC1
tested_target: Histamine H2 receptor (Homo sapiens, UniProt P25021)
IC50, nM: 1340

Lab entry: Histamine H2 receptor (Homo sapiens, UniProt P25021) assay, compound O=C(OCCc1ccc(F)cc1)N1CCN(CCCC(c2ccc(F)cc2)c2ccc(F)cc2)CC1 , IC50 = 1250

* * *

Here's a batch of compounds along with measured pIC50 for D(3) dopamine receptor (Homo sapiens).
Answers are plain numbers, as −log10 of the molar value.

Example entries and their recorded answers appear below.
compound: O=C(CCc1ccc(F)cc1)N1CCN(CCCC(c2ccc(F)cc2)c2ccc(F)cc2)CC1
pIC50: 6.01
//
compound: O=C(OC1CCc2ccccc21)N1CCC2(CC1)C(=O)NCN2c1ccccc1 (stereo not given)
pIC50: 5.50
//
compound: O=C(OCCc1ccc(F)cc1)N1CCN(CCCC(c2ccc(F)cc2)c2ccc(F)cc2)CC1
pIC50: 6.34
//
compound: O=C(CCCc1ccccc1)N1CCN(CCCC(c2ccc(F)cc2)c2ccc(F)cc2)CC1
pIC50: 6.12

pIC50 for CCOc1ccc(CCNC(=O)N2CCN(CCCC(c3ccc(F)cc3)c3ccc(F)cc3)CC2)cc1 is 6.47
